binders and their reported Kd
- TARGET: T1, CMV gp116 epitope AD2 site peptide SHRANETIYNTTLKYGDTTGTNTTK (CMV (human cytomegalovirus), not fully specified)
- T1 construct: Synthetic polypeptide corresponding to the AD2 site of gp116 (glycoprotein B); A biotinylated form was used to select B cells; also called CMV gp116 AD2 peptide
- T1 peptide: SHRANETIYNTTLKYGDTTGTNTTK
- TEST METHOD NOTES: kinetic affinity measurement, method not stated; antigen taken as CMV gp116 AD2 peptide
Please give a number only; it is taken to be in nM.

Solved cases below.
BINDER | Kd / nM
5P9 human anti-CMV antibody (antibody, V domains shown, Recombinant human IgG, gamma heavy and kappa light chain; also called mAb E-5P9) VH: QVQLVESGGGVIQPGRSLRLSCVASKFIFSNHGIHWVRQAPGKGLEWVAVISKDGTNAHYADSVRGRFSISRDNSKDTVFLEMRSLRPEDTAVYYCAREGRCIEEKCYSGQIDYWGQGSLVTVSS VL: EILLTQSPATLSLSPGERATLSCRASQSVGRYMAWYQQRPGQAPRLLIYDASIRATGIPARFSGSGSGTDFTLTISSLQTEDFAIYYCQQRSSWPPLTFGGGTKVEIKR | 4.9
2F10 human anti-CMV antibody (antibody, V domains shown, Recombinant human IgG, gamma heavy and kappa light chain, made by transient transfection of 293 cells; also called mAb A-2F10) VH: QVHLVESGGGVVQPGRALRLSCAATGFTFSNHGIHWVRQAPGKGLEWLAVISSDGDDDRYADSVKGRFSVSRDNSKNTVHLQMNGLRPDDTAIYFCARDGRCGEPKCYSGLPDYWGRGTLVTVSS VL: EIVLTQSPATLSLSPGDRATLSCRASQSVGGYLAWYQQKPGQAPRLLLYDASNRATGIPARFSGSGSGTDFTLTISSLEPEDFALYYCLQRNTWPPLTFGGGTKVEIKR | 1.98
2N9 human anti-CMV antibody (antibody, V domains shown, Recombinant human IgG, gamma heavy and kappa light chain; (MDMR); If the listing entry has two more residues, the range shifts by 2; also called TCN-202; mAb C-2N9) VH: QVQLVESGGGVVQPGRSLRLSCAASGFTFSSNGIHWVRQAPGKGLDWVAVISSDANDKQYADSVKGRFTISRDNSKNMVYLQMNSLRVEDTAVYFCARDGTCSGGNCYSGLIDYWGRGILVTVSS VL: EIVLTQSPATLSLSPGERATLSCRASQSVGGYLAWYQQKPGQAPRLLIYDASIRATGIPARFSGSGSGTDFTLTISSLEPEDFAVYYCHQRSNWPPLTFGGGTKVDIKR | 11.6

Then this binder:
Which Kd value is on record for 4P12 human anti-CMV antibody (antibody, V domains shown, Recombinant human IgG, gamma heavy and kappa light chain; also called mAb D-4P12) VH: QVQLVESGGGVIQPGRSLRLSCVASKFIFSNHGIHWVRQAPGKGLEWVAVISKDGTNAHYADSVRGRFSISRDNSKDTVFLEMRSLRPEDTAVYYCAREGRCIEENCYSGQIDYWGQGSLVTVSS VL: EILLTQSPATLSLSPGERATLSCRASQSVGRYMAWYQQRPGQAPRLLIYDASIRATGIPARFSGSGSGTDFTLTISSLQPEDFAIYYCQQRSSWPPLTFGGGTKVEIKR ?
10.9
